MEASUREMENT TARGET: UniProt:O95819
Sequence (O95819 whole entry, species assumed): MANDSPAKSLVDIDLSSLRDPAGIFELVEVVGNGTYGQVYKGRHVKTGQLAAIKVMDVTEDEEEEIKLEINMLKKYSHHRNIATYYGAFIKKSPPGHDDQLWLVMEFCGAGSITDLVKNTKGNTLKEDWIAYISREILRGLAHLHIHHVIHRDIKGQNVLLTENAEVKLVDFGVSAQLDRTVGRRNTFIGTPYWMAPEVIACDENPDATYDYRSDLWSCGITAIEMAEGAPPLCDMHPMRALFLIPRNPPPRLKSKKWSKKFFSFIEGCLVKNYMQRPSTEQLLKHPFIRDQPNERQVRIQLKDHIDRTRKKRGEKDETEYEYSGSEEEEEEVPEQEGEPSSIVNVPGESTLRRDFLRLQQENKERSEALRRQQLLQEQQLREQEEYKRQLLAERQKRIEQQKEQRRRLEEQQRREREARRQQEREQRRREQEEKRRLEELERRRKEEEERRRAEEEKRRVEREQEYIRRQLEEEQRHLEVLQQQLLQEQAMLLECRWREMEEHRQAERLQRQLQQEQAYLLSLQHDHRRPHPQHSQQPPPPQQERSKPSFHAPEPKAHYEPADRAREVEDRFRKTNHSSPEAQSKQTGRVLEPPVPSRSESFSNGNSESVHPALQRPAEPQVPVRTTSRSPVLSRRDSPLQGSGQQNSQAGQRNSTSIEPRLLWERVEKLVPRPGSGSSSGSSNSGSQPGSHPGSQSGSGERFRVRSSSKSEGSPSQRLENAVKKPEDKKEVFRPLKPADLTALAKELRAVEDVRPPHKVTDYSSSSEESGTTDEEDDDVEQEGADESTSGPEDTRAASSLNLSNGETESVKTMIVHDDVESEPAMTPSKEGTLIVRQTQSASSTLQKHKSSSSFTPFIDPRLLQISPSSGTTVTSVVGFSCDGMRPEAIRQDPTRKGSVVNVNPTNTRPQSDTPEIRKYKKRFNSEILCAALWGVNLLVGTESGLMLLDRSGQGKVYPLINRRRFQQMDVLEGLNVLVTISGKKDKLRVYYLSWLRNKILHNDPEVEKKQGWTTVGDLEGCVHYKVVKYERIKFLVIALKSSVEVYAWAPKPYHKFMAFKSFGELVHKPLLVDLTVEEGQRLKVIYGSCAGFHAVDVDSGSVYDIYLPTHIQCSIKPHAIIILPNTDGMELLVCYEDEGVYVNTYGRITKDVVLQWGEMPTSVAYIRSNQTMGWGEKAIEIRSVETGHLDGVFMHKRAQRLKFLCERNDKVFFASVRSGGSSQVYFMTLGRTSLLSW
TEST DESCRIPTION: FRET-based coupled-enzyme protein kinase inhibition assay
Type: biochemical
CONDITION PARAMETERS: compound at 10 µM, 1% DMSO
OUTCOME MEASURE: inhibition at 10 µM (%)
# number only, unit % dropped from output

COMPOUND: Nc1ncnc2c1ncn2[C@@H]1O[C@H](COC(=O)N2CCC(Cc3ccc(F)cc3)C2)[C@@H](O)[C@H]1O (stereo partly shown)
inhibition at 10 µM (%): 1

COMPOUND: Nc1ncnc2c1ncn2[C@@H]1O[C@H](COC(=O)N[C@@H]2CCN(Cc3ccccc3)C2)[C@@H](O)[C@H]1O
inhibition at 10 µM (%): 8

COMPOUND: Nc1ncnc2c1ncn2[C@@H]1O[C@H](COC(=O)N2CCS(=O)(=O)CC2)[C@@H](O)[C@H]1O
inhibition at 10 µM (%): -6

Consider the record given below.
Task: Param item = CN(C)CCNC(=O)OC[C@H]1O[C@@H](n2cnc3c(N)ncnc32)[C@H](O)[C@@H]1O ; retrieve measured inhibition at 10 µM.
Result: -8

====

The entries below are paired with their reported inhibition at 10 µM.
MEASUREMENT TARGET: PLK1 (Homo sapiens)
Sequence (P53350 whole entry, species assumed): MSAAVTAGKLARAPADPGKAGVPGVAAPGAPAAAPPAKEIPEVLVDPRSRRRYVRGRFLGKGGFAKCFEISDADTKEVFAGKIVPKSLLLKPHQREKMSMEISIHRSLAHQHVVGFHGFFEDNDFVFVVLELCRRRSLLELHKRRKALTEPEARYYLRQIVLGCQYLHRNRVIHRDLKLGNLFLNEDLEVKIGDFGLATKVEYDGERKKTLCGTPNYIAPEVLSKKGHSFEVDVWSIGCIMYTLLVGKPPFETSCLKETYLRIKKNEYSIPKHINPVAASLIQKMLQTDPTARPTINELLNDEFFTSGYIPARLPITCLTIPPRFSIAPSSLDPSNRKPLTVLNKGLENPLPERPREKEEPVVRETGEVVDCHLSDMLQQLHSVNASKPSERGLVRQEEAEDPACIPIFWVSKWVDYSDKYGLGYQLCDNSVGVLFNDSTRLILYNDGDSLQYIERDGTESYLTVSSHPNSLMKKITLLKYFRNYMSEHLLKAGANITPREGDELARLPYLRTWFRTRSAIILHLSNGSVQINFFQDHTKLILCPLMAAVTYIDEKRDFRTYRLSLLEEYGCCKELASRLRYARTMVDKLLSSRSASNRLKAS
TEST DESCRIPTION: FRET-based coupled-enzyme protein kinase inhibition assay
Assay type: biochemical
CONDITION PARAMETERS: compound at 10 µM, 1% DMSO
# number only, unit % dropped from output

Answered examples (5):
MOLECULE: Nc1ncnc2c1ncn2[C@@H]1O[C@H](COC(=O)N2CCN(C(=O)N3CCOCC3)CC2)[C@@H](O)[C@H]1O
inhibition at 10 µM, %: -10
--
MOLECULE: CN1CCN(CCNC(=O)OC[C@H]2O[C@@H](n3cnc4c(N)ncnc43)[C@H](O)[C@@H]2O)CC1
inhibition at 10 µM, %: -5
--
MOLECULE: Nc1ncnc2c1ncn2[C@@H]1O[C@H](COC(=O)N2CCN(Cc3ccccc3)CC2CO)[C@@H](O)[C@H]1O (stereo partly shown)
inhibition at 10 µM, %: -12
--
MOLECULE: Nc1ncnc2c1ncn2[C@@H]1O[C@H](COC(=O)N[C@@H]2CCN(Cc3ccccc3)C2)[C@@H](O)[C@H]1O
inhibition at 10 µM, %: -13
--
MOLECULE: CN(C)CCNC(=O)OC[C@H]1O[C@@H](n2cnc3c(N)ncnc32)[C@H](O)[C@@H]1O
inhibition at 10 µM, %: -3

Task: Param item = N#CCCN1CCN(C(=O)OC[C@H]2O[C@@H](n3cnc4c(N)ncnc43)[C@H](O)[C@@H]2O)CC1 ; retrieve measured inhibition at 10 µM.
Result: 0

Task: Then this molecule: Nc1ncnc2c1ncn2[C@@H]1O[C@H](COC(=O)NC[C@H](O)CO)[C@@H](O)[C@H]1O
Result: -1

Task: Then this molecule: CS(=O)(=O)N1CC2(CCN(C(=O)OC[C@H]3O[C@@H](n4cnc5c(N)ncnc54)[C@H](O)[C@@H]3O)CC2)c2ccccc21
Result: -7

Task: Then this molecule: Nc1ncnc2c1ncn2[C@@H]1O[C@H](COC(=O)NCCCc2nc3ccccc3[nH]2)[C@@H](O)[C@H]1O
Result: -8

Task: Then this molecule: CC(C)N1CCC(NC(=O)OC[C@H]2O[C@@H](n3cnc4c(N)ncnc43)[C@H](O)[C@@H]2O)CC1
Result: -6

Task: Then this molecule: Nc1ncnc2c1ncn2[C@@H]1O[C@H](COC(=O)N2CCS(=O)(=O)CC2)[C@@H](O)[C@H]1O
Result: -11

Task: Then this molecule: Nc1ncnc2c1ncn2[C@@H]1O[C@H](COC(=O)N2CCC(Cc3ccc(F)cc3)C2)[C@@H](O)[C@H]1O (stereo partly shown)
Result: -5

Task: Then this molecule: Nc1ncnc2c1ncn2[C@@H]1O[C@H](COC(=O)N2CCC[C@H]2CO)[C@@H](O)[C@H]1O
Result: -1

Task: Then this molecule: C[C@@H](NC(=O)OC[C@H]1O[C@@H](n2cnc3c(N)ncnc32)[C@H](O)[C@@H]1O)c1ccc(Cl)cc1
Result: -3

Task: Then this molecule: Nc1ncnc2c1ncn2[C@@H]1O[C@H](COC(=O)N2CCN(CCc3ccccc3)CC2)[C@@H](O)[C@H]1O
Result: -8

Task: Then this molecule: Nc1ncnc2c1ncn2[C@@H]1O[C@H](COC(=O)NCCN2CCCC2=O)[C@@H](O)[C@H]1O
Result: -5

====

MEASUREMENT TARGET: CSNK1G2 (CK1 gamma 2) (Homo sapiens, UniProt P78368)
Sequence (P78368 whole entry, species assumed): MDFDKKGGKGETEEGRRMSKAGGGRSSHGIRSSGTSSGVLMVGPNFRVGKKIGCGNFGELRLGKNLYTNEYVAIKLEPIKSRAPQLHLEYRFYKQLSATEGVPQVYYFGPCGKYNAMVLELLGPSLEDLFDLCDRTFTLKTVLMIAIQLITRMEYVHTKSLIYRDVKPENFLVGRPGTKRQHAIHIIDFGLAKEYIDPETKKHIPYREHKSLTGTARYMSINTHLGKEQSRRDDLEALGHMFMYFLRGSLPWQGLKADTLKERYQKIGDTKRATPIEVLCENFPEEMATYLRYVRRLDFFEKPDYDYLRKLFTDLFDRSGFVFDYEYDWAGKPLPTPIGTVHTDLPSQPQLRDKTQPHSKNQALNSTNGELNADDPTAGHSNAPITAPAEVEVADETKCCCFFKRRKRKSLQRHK
TEST DESCRIPTION: FRET-based coupled-enzyme protein kinase inhibition assay
Format: biochemical
CONDITION PARAMETERS: compound at 10 µM, 1% DMSO
OUTCOME MEASURE: inhibition at 10 µM (%)
# number only, unit % dropped from output

Answered examples (3):
SMILES REPRESENTATION: Nc1ncnc2c1ncn2[C@@H]1O[C@H](COC(=O)NC[C@H](O)CO)[C@@H](O)[C@H]1O
UNITS LABEL: %
inhibition at 10 µM: 13

SMILES REPRESENTATION: Nc1ncnc2c1ncn2[C@@H]1O[C@H](COC(=O)N2CCC[C@H]2CO)[C@@H](O)[C@H]1O
UNITS LABEL: %
inhibition at 10 µM: -5

SMILES REPRESENTATION: C[C@@H](NC(=O)OC[C@H]1O[C@@H](n2cnc3c(N)ncnc32)[C@H](O)[C@@H]1O)c1ccc(Cl)cc1
UNITS LABEL: %
inhibition at 10 µM: 7

Consider the record given below.
Task: Param item = Nc1ncnc2c1ncn2[C@@H]1O[C@H](COC(=O)N2CCS(=O)(=O)CC2)[C@@H](O)[C@H]1O ; retrieve measured inhibition at 10 µM.
Result: -1

====

MEASUREMENT TARGET: RPS6KA3 (RSK2) (Homo sapiens)
Sequence (P51812 whole entry, species assumed): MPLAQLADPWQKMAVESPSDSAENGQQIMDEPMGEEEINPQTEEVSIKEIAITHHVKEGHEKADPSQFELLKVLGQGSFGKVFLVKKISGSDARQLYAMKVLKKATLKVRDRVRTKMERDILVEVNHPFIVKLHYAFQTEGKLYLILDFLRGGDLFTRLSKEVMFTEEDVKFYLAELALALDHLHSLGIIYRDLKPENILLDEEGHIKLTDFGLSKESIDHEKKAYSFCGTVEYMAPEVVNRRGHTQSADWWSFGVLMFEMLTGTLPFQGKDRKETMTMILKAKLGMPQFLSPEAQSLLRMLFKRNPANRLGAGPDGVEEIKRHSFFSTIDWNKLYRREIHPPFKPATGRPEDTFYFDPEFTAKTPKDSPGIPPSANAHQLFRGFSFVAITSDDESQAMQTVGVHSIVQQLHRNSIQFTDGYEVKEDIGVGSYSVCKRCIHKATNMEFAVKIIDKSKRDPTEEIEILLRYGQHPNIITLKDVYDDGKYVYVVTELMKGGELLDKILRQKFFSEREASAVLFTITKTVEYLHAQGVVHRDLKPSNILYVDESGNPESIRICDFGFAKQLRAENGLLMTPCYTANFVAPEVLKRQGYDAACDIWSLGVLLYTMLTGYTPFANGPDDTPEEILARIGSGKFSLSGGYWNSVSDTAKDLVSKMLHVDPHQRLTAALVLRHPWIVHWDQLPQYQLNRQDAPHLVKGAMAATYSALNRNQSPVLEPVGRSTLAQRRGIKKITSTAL
TEST DESCRIPTION: FRET-based coupled-enzyme protein kinase inhibition assay
Assay type: biochemical
CONDITION PARAMETERS: compound at 10 µM, 1% DMSO
The entries below are paired with their reported inhibition at 10 µM.
# number only, unit % dropped from output

Answered examples (3):
COMPOUND: Nc1ncnc2c1ncn2[C@@H]1O[C@H](COC(=O)N2CCC(Cc3ccc(F)cc3)C2)[C@@H](O)[C@H]1O (stereo partly shown)
NUMBER: 6
--
COMPOUND: Nc1ncnc2c1ncn2[C@@H]1O[C@H](COC(=O)N2CCN(CCc3ccccc3)CC2)[C@@H](O)[C@H]1O
NUMBER: 0
--
COMPOUND: N#CCCN1CCN(C(=O)OC[C@H]2O[C@@H](n3cnc4c(N)ncnc43)[C@H](O)[C@@H]2O)CC1
NUMBER: 2

Task: Please tell me: inhibition at 10 µM of Nc1ncnc2c1ncn2[C@@H]1O[C@H](COC(=O)N2CCC[C@H]2CO)[C@@H](O)[C@H]1O , system RPS6KA3 (RSK2) (Homo sapiens)?
Result: 1

Task: Then this compound: Nc1ncnc2c1ncn2[C@@H]1O[C@H](COC(=O)N[C@@H]2CCN(Cc3ccccc3)C2)[C@@H](O)[C@H]1O
Result: 8

Task: Then this compound: C[C@@H](NC(=O)OC[C@H]1O[C@@H](n2cnc3c(N)ncnc32)[C@H](O)[C@@H]1O)c1ccc(Cl)cc1
Result: 9

Task: Then this compound: Nc1ncnc2c1ncn2[C@@H]1O[C@H](COC(=O)N2CCN(Cc3ccccc3)CC2CO)[C@@H](O)[C@H]1O (stereo partly shown)
Result: 3

Task: Then this compound: CC(C)N1CCC(NC(=O)OC[C@H]2O[C@@H](n3cnc4c(N)ncnc43)[C@H](O)[C@@H]2O)CC1
Result: 1

Task: Then this compound: Nc1ncnc2c1ncn2[C@@H]1O[C@H](COC(=O)NC[C@H](O)CO)[C@@H](O)[C@H]1O
Result: 19

====

MEASUREMENT TARGET: RPS6KB1 (p70S6K) (Homo sapiens, UniProt P23443)
Sequence (P23443 whole entry, species assumed): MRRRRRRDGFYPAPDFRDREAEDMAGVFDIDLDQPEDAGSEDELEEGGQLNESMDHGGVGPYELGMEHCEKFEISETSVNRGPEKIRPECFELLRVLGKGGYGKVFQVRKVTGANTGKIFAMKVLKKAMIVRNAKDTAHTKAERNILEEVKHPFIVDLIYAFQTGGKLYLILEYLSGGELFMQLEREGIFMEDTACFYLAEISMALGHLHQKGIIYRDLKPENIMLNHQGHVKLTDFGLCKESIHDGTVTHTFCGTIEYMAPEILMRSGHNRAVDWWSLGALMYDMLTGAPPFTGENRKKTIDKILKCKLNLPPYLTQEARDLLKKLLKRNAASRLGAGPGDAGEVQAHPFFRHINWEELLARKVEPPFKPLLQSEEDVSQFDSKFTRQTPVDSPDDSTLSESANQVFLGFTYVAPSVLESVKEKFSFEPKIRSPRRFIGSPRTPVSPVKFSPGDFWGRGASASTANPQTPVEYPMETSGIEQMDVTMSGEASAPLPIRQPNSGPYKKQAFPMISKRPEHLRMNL
TEST DESCRIPTION: FRET-based coupled-enzyme protein kinase inhibition assay
Type: biochemical
CONDITION PARAMETERS: compound at 10 µM, 1% DMSO
Description: A biochemical assay was then performed in order to measure the protein kinase inhibition. It employed a fluorescence-based coupled-enzyme format and was based on the differential sensitivity of phosphorylated and non-phosphorylated peptides to proteolytic cleavage. […] A significant benefit of this ratiometric method for quantitating reaction progress is the elimination of well-to-well variations in FRET-peptide concentration and signal intensities. […]
OUTCOME MEASURE: inhibition at 10 µM (%)
# number only, unit % dropped from output

Answered examples (10):
COMPOUND: Nc1ncnc2c1ncn2[C@@H]1O[C@H](COC(=O)NC[C@H](O)CO)[C@@H](O)[C@H]1O
inhibition at 10 µM [%]: 11
//
COMPOUND: Nc1ncnc2c1ncn2[C@@H]1O[C@H](COC(=O)N2CCS(=O)(=O)CC2)[C@@H](O)[C@H]1O
inhibition at 10 µM [%]: 13
//
COMPOUND: N#CCCN1CCN(C(=O)OC[C@H]2O[C@@H](n3cnc4c(N)ncnc43)[C@H](O)[C@@H]2O)CC1
inhibition at 10 µM [%]: 6
//
COMPOUND: CN1CCN(CCNC(=O)OC[C@H]2O[C@@H](n3cnc4c(N)ncnc43)[C@H](O)[C@@H]2O)CC1
inhibition at 10 µM [%]: 14
//
COMPOUND: CN(C)CCNC(=O)OC[C@H]1O[C@@H](n2cnc3c(N)ncnc32)[C@H](O)[C@@H]1O
inhibition at 10 µM [%]: -1
//
COMPOUND: Nc1ncnc2c1ncn2[C@@H]1O[C@H](COC(=O)N2CCN(CCc3ccccc3)CC2)[C@@H](O)[C@H]1O
inhibition at 10 µM [%]: 8
//
COMPOUND: CC(C)N1CCC(NC(=O)OC[C@H]2O[C@@H](n3cnc4c(N)ncnc43)[C@H](O)[C@@H]2O)CC1
inhibition at 10 µM [%]: 3
//
COMPOUND: Nc1ncnc2c1ncn2[C@@H]1O[C@H](COC(=O)N2CCN(Cc3ccccc3)CC2CO)[C@@H](O)[C@H]1O (stereo partly shown)
inhibition at 10 µM [%]: 10
//
COMPOUND: Nc1ncnc2c1ncn2[C@@H]1O[C@H](COC(=O)N[C@@H]2CCN(Cc3ccccc3)C2)[C@@H](O)[C@H]1O
inhibition at 10 µM [%]: 5
//
COMPOUND: C[C@@H](NC(=O)OC[C@H]1O[C@@H](n2cnc3c(N)ncnc32)[C@H](O)[C@@H]1O)c1ccc(Cl)cc1
inhibition at 10 µM [%]: 22

Task: Param item = Nc1ncnc2c1ncn2[C@@H]1O[C@H](COC(=O)N2CCC[C@H]2CO)[C@@H](O)[C@H]1O ; retrieve measured inhibition at 10 µM.
Result: 3

Task: Then this compound: Nc1ncnc2c1ncn2[C@@H]1O[C@H](COC(=O)NCCCc2nc3ccccc3[nH]2)[C@@H](O)[C@H]1O
Result: 15

Task: Then this compound: Nc1ncnc2c1ncn2[C@@H]1O[C@H](COC(=O)N2CCN(C(=O)N3CCOCC3)CC2)[C@@H](O)[C@H]1O
Result: 0
